quantity-kind: melting point

{"mol-smiles": "O=C1c2ccccc2C(=O)c2sc(-c3cc(Br)co3)nc21", "quantity-kind": "melting point", "result": "> 260 °C"}
{"mol-smiles": "CC(=O)Nc1cc(C)c2c(C)c(C)[nH]c2c1", "quantity-kind": "melting point", "result": "255 °C"}
{"mol-smiles": "CCC(=O)n1ccc(-c2ccc(C(=O)N3Cc4cccn4Cc4ccccc43)cc2)n1", "quantity-kind": "melting point", "result": "150 to 152 °C"}
{"mol-smiles": "Cc1ccc(C(=O)C(F)(F)S(=O)(=O)c2ccccc2)cc1", "quantity-kind": "melting point", "result": "79 to 81 °C"}
{"mol-smiles": "CC1=C(C(=O)O)C(C)(C)CCC1=O", "quantity-kind": "melting point", "result": "181 to 183 °C"}
{"mol-smiles": "Nc1cccc(CCc2n[nH]c3c2c(=O)n(-c2ccccc2)c2ncccc32)c1", "quantity-kind": "melting point", "result": "229 to 231 °C"}
{"mol-smiles": "CCOC(=O)c1cn(CCF)c2c(F)c(C(C)=O)c(F)cc2c1=O", "quantity-kind": "melting point", "result": "155 to 156 °C"}
{"mol-smiles": "CCCCN(CCCC)C(=O)/C=C/c1ccc(Cn2c(-c3ccc(F)cc3)c(C)c3cc(O)ccc32)cc1", "quantity-kind": "melting point", "result": "180 °C"}
{"mol-smiles": "Fc1ccc(Cn2c(NC3CCN(CCNc4nc5ccccc5n4Cc4ccc(Cl)c(Cl)c4)CC3)nc3ccccc32)cc1", "quantity-kind": "melting point", "result": "113 °C"}
{"mol-smiles": "CCC(=O)N1CCc2cc(O)c(OC)cc2C1", "quantity-kind": "melting point", "result": "116 to 118 °C"}

###

Examples of compounds with documented melting point follow.
quantity-kind: melting point

{"compound": "CNC(=NC#N)NCCCCc1nccc(NC(N)=NCCOC)n1", "quantity-kind": "melting point", "result": "162 to 165 °C"}
{"compound": "CC(C)(C)OC1CCC2(C)C(=CC(=O)C3C4CCC(=O)C4(C)CCC32)C1 (stereo unspecified)", "quantity-kind": "melting point", "result": "189 to 191 °C"}
{"compound": "CN1Cc2c(/C=C\\Cl)ncn2-c2cccc(Cl)c2C1=O", "quantity-kind": "melting point", "result": "205 to 207 °C"}
{"compound": "c1cnc(NC2CCN(C3CCCC3)CC2)nc1", "quantity-kind": "melting point", "result": "118 °C"}
{"compound": "CC=CC(=O)C1=C(C)C(=O)CCC1(C)C", "quantity-kind": "melting point", "result": "68 to 69 °C"}
{"compound": "CC(=O)SCC(C(=O)NC(C)C(=O)O)C(C)c1ccc(F)cc1 (stereo unspecified)", "quantity-kind": "melting point", "result": "93 °C"}

###

Examples of compounds with documented melting point follow.

{"compound": "CNc1cc(NC)nc(NS(=O)(=O)c2ccc(N)cc2)n1", "melting point": "262 to 263 °C"}
{"compound": "CCOC(=O)C(=O)CC(=O)c1cn(Cc2ccc(O)cc2)c2ccccc2c1=O", "melting point": "179 to 181 °C"}
{"compound": "ON=C1CCn2c(-c3ccccc3)nc3c(Cl)ccc1c32", "melting point": "251 to 252 °C"}
{"compound": "CN1CCN(c2cccc3c2C[C@H](NC(=O)c2csc(-c4ccccc4)n2)CC3)CC1", "melting point": "175 to 176 °C"}
{"compound": "CCOC(=O)c1cn(-c2ccc(F)cc2F)c2cc(F)c(F)c(C)c2c1=O", "melting point": "161 to 164 °C"}
{"compound": "COc1cccc2c(C(=O)c3ccc(OC4CCCCC4N4CCCCC4)cc3)c(-c3ccc(OCCN4CCCC4)cc3)sc12 (stereo not given)", "melting point": "66 to 69 °C"}
{"compound": "c1ccc(COc2ccc3ccc4cccc5ccc2c3c45)cc1", "melting point": "105 to 106 °C"}
{"compound": "N#CC(Cc1ccc(-c2ccccc2)cc1)C(=O)N=NO (stereo not given)", "melting point": "172 °C"}
{"compound": "Nc1ncc(-c2cc(C(F)(F)F)cc(C(F)(F)F)c2)nc1C(=O)Nc1cccnc1", "melting point": "220 to 222 °C"}
{"compound": "Cc1nn2c(-c3cc(Cl)ccc3Cl)ccnc2c1C(N)=O", "melting point": "234 to 236 °C"}
{"compound": "O=C(OCCN1CCCCCC1)c1ccccc1Nc1ccnc2cc(C(F)(F)F)ccc12", "melting point": "72 to 75 °C"}
{"compound": "CC1(C)CCc2c(N3CCOCC3)nc3sc4c(NCc5cccnc5)ncnc4c3c2C1", "melting point": "249 °C"}
{"compound": "CNC(N)=C(CCSCc1csc(CN(C)C)n1)[N+](=O)[O-]", "melting point": "130 to 132 °C"}
{"compound": "NC(N)=Nc1nc(N2CCOCC2)nc2c1ccc1ccccc12", "melting point": "235 °C"}
{"compound": "CC(=NO)c1ccccc1Nc1c(Cl)ccc(C)c1Cl", "melting point": "116 to 118 °C"}
{"compound": "CN(c1cc(OCCO)cc2cc(C3=NCC(CN4CCSCC4)S3)[nH]c12)S(=O)(=O)c1ccccn1 (stereo not given)", "melting point": "160 to 162 °C"}
{"compound": "Nc1sc2c(c1C(=O)c1cccc(C(F)(F)F)c1)CCN(CCc1ccccc1)C2", "melting point": "137 to 138 °C"}
{"compound": "N#Cc1ccc(N(Cc2ccc(OS(N)(=O)=O)c(Cl)c2)n2cnnc2)cc1-c1cc2ccccc2o1", "melting point": "214 to 215 °C"}
{"compound": "CCCCCCCCOc1ccc(-c2cc(F)cc(F)c2F)cc1", "melting point": "31 °C"}
{"compound": "CCCc1c(OCCCCCBr)ccc2c1OCCC2=O", "melting point": "47 to 48 °C"}

###

Examples of compounds with documented melting point follow.
quantity-kind: melting point

{"compound": "Cc1cc(C)cc(S(=O)(=O)c2ccc([N+](=O)[O-])cc2)c1", "quantity-kind": "melting point", "result": "179 to 180 °C"}
{"compound": "COc1ccc(C2=NN(c3ccc(C(=O)N4CCN(c5c(Cl)cncc5Cl)CC4)cc3)C(=O)[C@@H]3CC=CC[C@H]23)cc1OC", "quantity-kind": "melting point", "result": "137 to 139 °C"}
{"compound": "CC(C)NC(=O)c1ccccc1", "quantity-kind": "melting point", "result": "101 to 103 °C"}
{"compound": "CN1CCC(NC(c2cccc([N+](=O)[O-])c2)c2nc3ccccc3[nH]2)CC1 (configuration not stated)", "quantity-kind": "melting point", "result": "254 °C"}
{"compound": "OC(Cn1cncn1)(c1ccc(Cl)cc1)C1(F)CC1 (configuration not stated)", "quantity-kind": "melting point", "result": "128 °C"}
{"compound": "CCn1c(=O)c(C(=O)O)nc2ccc(F)cc21", "quantity-kind": "melting point", "result": "162 to 164 °C"}
{"compound": "O=C(Cn1c(-c2cccs2)ncc(NC(=O)OCc2ccccc2)c1=O)NC(Cc1ccccc1)C(=O)C(F)(F)F (configuration not stated)", "quantity-kind": "melting point", "result": "108 to 111 °C"}
{"compound": "CC(C)n1cncc1CO", "quantity-kind": "melting point", "result": "83 to 84 °C"}
{"compound": "CN1C2=NC(C)(C)N(C)C(=O)N2c2ccccc21", "quantity-kind": "melting point", "result": "79 to 82 °C"}
{"compound": "O=C1NC(c2ccccc2)(c2ccccc2)C(=O)N1COCc1ccccc1", "quantity-kind": "melting point", "result": "151 to 152 °C"}
{"compound": "CC(C)(C)c1ccc(C(O)CCCN2CCC(C3(O)c4ccccc4CCc4ccccc43)CC2)cc1 (configuration not stated)", "quantity-kind": "melting point", "result": "142 to 144 °C"}
{"compound": "CCOC(=O)C1=Nc2cc3c(c(C)c2=C1C)N=c1ccc(C#N)cc1=3", "quantity-kind": "melting point", "result": "> 240 °C"}
{"compound": "FC(F)(F)c1cc(N(Cc2ccsc2)Cc2ccccn2)cc(C(F)(F)F)c1Br", "quantity-kind": "melting point", "result": "58 to 59 °C"}
{"compound": "CCN(CC)C(=O)n1cnc(Sc2cc(F)c(C#N)cc2F)n1", "quantity-kind": "melting point", "result": "80 °C"}
{"compound": "CC1(C)CC(CN2CCCNC2=N[N+](=O)[O-])CO1 (configuration not stated)", "quantity-kind": "melting point", "result": "109 to 110 °C"}
{"compound": "CCCCCCCCCOC1C(O)C(CO)OC1n1cnc2c(=O)[nH]c(NC(=O)C(C)C)nc21 (configuration not stated)", "quantity-kind": "melting point", "result": "168 to 169 °C"}
{"compound": "FC(F)(F)c1ccc(NC(=S)Nc2ncccc2OCc2ccccc2)cc1", "quantity-kind": "melting point", "result": "165 to 167 °C"}
{"compound": "Cc1cccc(-c2[nH]nnc2-c2ccc3c(c2)N(CCN2CCOCC2)C(=O)CO3)n1", "quantity-kind": "melting point", "result": "150 °C"}
{"compound": "O=c1nc(-c2ccnc(-c3ccccc3)c2)sc2ccccc12", "quantity-kind": "melting point", "result": "163 °C"}
{"compound": "S=C=Nc1ccc(-c2nc(-c3ccccn3)no2)cc1", "quantity-kind": "melting point", "result": "145 to 146 °C"}
{"compound": "COc1ccc([N+](=O)[O-])c(C(C)=O)c1OC", "quantity-kind": "melting point", "result": "64 to 66 °C"}
{"compound": "Nc1ncnc2c1ncn2CCCCOCP(=O)(O)O", "quantity-kind": "melting point", "result": "67 °C"}
{"compound": "O=C1CC2(CCCC2)CC(=O)N1c1cccnc1", "quantity-kind": "melting point", "result": "153 to 154 °C"}
{"compound": "O=C(NCc1ccccc1)C1CC=CC(O)C1 (configuration not stated)", "quantity-kind": "melting point", "result": "127 to 128 °C"}
{"compound": "COC(=O)c1cc2c([nH]c3ccc(Br)cc32)s1", "quantity-kind": "melting point", "result": "216 to 218 °C"}
{"compound": "CC(=O)C1CCC2C3CC=C4C=CCCC4(C)C3CCC12C (configuration not stated)", "quantity-kind": "melting point", "result": "135 to 136 °C"}
{"compound": "CCOc1nc2cccc(C(=O)OC)c2n1Cc1ccc(-c2ccccc2-c2nc(=O)o[nH]2)cc1", "quantity-kind": "melting point", "result": "186 to 187 °C"}
{"compound": "Clc1nc(-n2ccnc2)c2ccccc2c1-c1ccccc1", "quantity-kind": "melting point", "result": "165 to 168 °C"}
{"compound": "O=CNc1ccccc1Nc1ccc(C(=O)c2ccccc2)cc1", "quantity-kind": "melting point", "result": "122 to 124 °C"}
{"compound": "COC(=O)c1ccc(Cn2nnc3ccc(NC(=O)OC4CCCC4)cc32)c(OC)c1", "quantity-kind": "melting point", "result": "142 to 143 °C"}
{"compound": "Nc1cccc2cc(-c3ccccn3)[nH]c12", "quantity-kind": "melting point", "result": "165 to 166 °C"}
{"compound": "OCCCCn1ccc(NC(=S)Nc2ccccc2)n1", "quantity-kind": "melting point", "result": "112 to 117 °C"}
{"compound": "CC(=O)C1C(=O)CC(C#N)CC1=O (configuration not stated)", "quantity-kind": "melting point", "result": "66 to 69 °C"}
{"compound": "CCOc1c(Cl)cc(C(C)(C)N2CC(C)=C(c3ccccc3)C2=O)cc1Cl", "quantity-kind": "melting point", "result": "133 to 135 °C"}
{"compound": "CC(C)(C)NCC(O)COc1cccc(C#N)c1 (configuration not stated)", "quantity-kind": "melting point", "result": "108 to 110 °C"}
{"compound": "O=C(Oc1ccc(F)cc1Cl)Oc1ccc(F)cc1Cl", "quantity-kind": "melting point", "result": "91 to 92 °C"}
{"compound": "CCCCCCCCCCCCCCCC/C=C\\OC[C@H](O)CO", "quantity-kind": "melting point", "result": "55 to 56 °C"}
{"compound": "COC(=O)C(=O)NCCSC(c1ccccc1)c1ccccc1", "quantity-kind": "melting point", "result": "88 to 89 °C"}
{"compound": "COc1cc2c(cc1[N+](=O)[O-])N(C)C(=O)CNC2", "quantity-kind": "melting point", "result": "145 to 149 °C"}
{"compound": "COC(=O)CCC(=O)c1cc(NC(C)=O)ccc1OCC1CO1 (configuration not stated)", "quantity-kind": "melting point", "result": "84 to 87 °C"}
{"compound": "CC(C)(CO)c1cn2nc(NCCCN3CCC(OC(c4ccccc4)c4ccccc4)CC3)ccc2n1", "quantity-kind": "melting point", "result": "105 to 108 °C"}
{"compound": "COc1cc2oc(=O)c(CCOS(C)(=O)=O)c(C)c2c(OC)c1OC", "quantity-kind": "melting point", "result": "114 to 115 °C"}
